Target: T1, nSR100 (Mus musculus, UniProt Q8BKA3)
T1 construct: host or cells: mouse N2A cells
T1 sequence (Q8BKA3 1-608): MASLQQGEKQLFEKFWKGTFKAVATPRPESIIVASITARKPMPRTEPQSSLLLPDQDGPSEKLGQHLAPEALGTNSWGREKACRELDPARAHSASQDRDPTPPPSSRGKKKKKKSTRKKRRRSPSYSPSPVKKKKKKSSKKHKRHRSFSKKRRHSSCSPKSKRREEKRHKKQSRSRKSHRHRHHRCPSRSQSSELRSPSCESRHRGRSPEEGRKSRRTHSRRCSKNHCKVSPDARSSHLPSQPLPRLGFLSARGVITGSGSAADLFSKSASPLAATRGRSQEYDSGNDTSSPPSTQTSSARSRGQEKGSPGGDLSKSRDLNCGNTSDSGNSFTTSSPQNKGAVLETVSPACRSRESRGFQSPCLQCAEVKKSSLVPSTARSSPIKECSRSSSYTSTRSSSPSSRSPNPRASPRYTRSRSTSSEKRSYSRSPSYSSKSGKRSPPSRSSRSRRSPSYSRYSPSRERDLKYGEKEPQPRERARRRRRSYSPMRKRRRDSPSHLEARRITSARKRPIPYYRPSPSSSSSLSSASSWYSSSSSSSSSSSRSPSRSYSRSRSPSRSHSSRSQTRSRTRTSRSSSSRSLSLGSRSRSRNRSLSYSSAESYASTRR
Test: AP-MS nSR100 interaction partners from mouse N2A cells (Table 5)
Format: binding
Conditions: bait Srrm4, sum of spectra over 2 replicates
Measurement type: SpecSum

Rbmx2 (protein, UniProt Q8R0F5 1-326, looked up) RNA-binding motif protein, …: MNPLTKVKLINELNEREVQLGVAEKVSWHSEYKHSAWIFVGGLPYELTEGDIICVFSQYGEIVNINLVRDKKTGKSKGFCFLCYEDQRSTVLAVDNFNGIKIKGRTIRVDHVSNYRAPQESEDVDDVTRELQEKGCGVKTPPSSPPEVSEDEDAKLTKKHKKDKKEKKKRKKEKTEGQAQAEQPSCSRSATVKEKKDERASRKHSSKTSERAQKSEHRESKKSHSGSPDGRSSYHARAEDPECKARKEKPKHEHKSASRREAEEKSRERERGRSSGTHSGRHRGHSDGRSHRSRSRSRSPDKSHRHKKYRHSRERDSYHGSDRRHH :: 9

Kindly review the next molecule as well.
Prompt line: Item Fam76b (protein, UniProt Q80XP8 2-339, looked up) Protein FAM76B: AASALYACTKCTQRYPFEELSQGQQLCKECRIAHPIVKCTYCRSEFQQESKTNTICKKCAQNVKQFGTPKPCQYCNIIAAFIGTKCQRCTNSEKKYGAPQTCEQCKQQCAFDRKEEGRRKVDGKLLCWLCTLSYKRVLQKTKEQRKSLGSSHSNSSSSSLTEKDQHHSKHHHHHHHHHHRHSSGHHKVSSLSPEQEQGLWKQSHKSSAAIQNETPKKKPKLESKPSNGDSSSINQSADSGGTDNFVLISQLKEEVMSLKRLLQQRDQTILEKDKKLTELKADFQYQESNLRTKMNSMEKAHKETVEQLQAKNRELLKQVAALSKGKKFDKSGSVLTSP : provide SpecSum
Response line: 7
